Measured Biodistribution: Skin accompanies every entry in the list below.
# procedure details: In vivo biodistribution in mice
# Parameters: species or system normal CD-1 male mice
# particulars: iv, 2 min post injection
recorded endpoint: Biodistribution: Skin (% dose/g)

[
  {
    "molecule": "O=C([O-])CN(CCN(CC(=O)[O-])Cc1cc(CCC(=O)NC(P(=O)(O)O)P(=O)(O)O)ccc1[O-])Cc1cc(CCC(=O)O)ccc1[O-].[68Ga+3] [[^68Ga]1a]",
    "quantitative readout": 2.18
  },
  {
    "molecule": "O=C([O-])CN(CCN(CC(=O)[O-])Cc1cc(CCC(=O)NC(P(=O)(O)O)P(=O)(O)O)ccc1[O-])Cc1cc(CCC(=O)NCCCNC(=O)CCc2ccc(O)c(CN(CCN(CC(=O)O)Cc3cc(CCC(=O)NC(P(=O)(O)O)P(=O)(O)O)ccc3O)CC(=O)O)c2)ccc1[O-].[68Ga+3] [[^68Ga]3]",
    "quantitative readout": 1.24
  },
  {
    "molecule": "O=C(O)CN1CCN(CC(=O)O)CCN(CC(=O)NC(P(=O)(O)O)P(=O)(O)O)CCN(CC(=O)O)CC1.[68Ga] [[^68Ga]BPAMD, reference compound]",
    "quantitative readout": 2.57
  }
]

* * *

# procedure details: In vivo biodistribution in mice
# Parameters: species or system normal CD-1 male mice
# particulars: iv, 2 min post injection
# Method: Biodistribution experiments were performed by intravenously administering ^68Ga labeled 1a-h, 2, 3, BPAMD, and [^18F]NaF into normal, healthy male CD-1 mice (25-30 g). The injection activity was 20-30 μCi/animal. […] Organs of interest were harvested, weighed, and counts of radioactivity were measured by a gamma counter. The biodistribution of each sample was calculated as a percentage of the injected dose per gram of wet tissue weight (% ID/g). […]
Rule: fulfilled for Biodistribution: Spleen not less than 2 % dose/g, not fulfilled for anything less.

[
  {
    "molecule": "O=C([O-])CN(CCN(CC(=O)[O-])Cc1cc(CCC(=O)NC(P(=O)(O)O)P(=O)(O)O)ccc1[O-])Cc1cc(CCC(=O)NC(P(=O)(O)O)P(=O)(O)O)ccc1[O-].[68Ga+3] [[^68Ga]2]",
    "label value": "fulfilled"
  },
  {
    "molecule": "O=C([O-])CN(CCN(CC(=O)[O-])Cc1cc(CCC(=O)NC(P(=O)(O)O)P(=O)(O)O)ccc1[O-])Cc1cc(CCC(=O)NCCCCCC(=O)NCCCC[C@H](NC(=O)N[C@@H](CCC(=O)O)C(=O)O)C(=O)O)ccc1[O-].[68Ga+3] [[^68Ga]1g]",
    "label value": "fulfilled"
  },
  {
    "molecule": "O=C(O)CN1CCN(CC(=O)O)CCN(CC(=O)NC(P(=O)(O)O)P(=O)(O)O)CCN(CC(=O)O)CC1.[68Ga] [[^68Ga]BPAMD, reference compound]",
    "label value": "not fulfilled"
  },
  {
    "molecule": "O=C([O-])CN(CCN(CC(=O)[O-])Cc1cc(CCC(=O)NC(P(=O)(O)O)P(=O)(O)O)ccc1[O-])Cc1cc(CCC(=O)NCCCNC(=O)CCc2ccc(O)c(CN(CCN(CC(=O)O)Cc3cc(CCC(=O)NC(P(=O)(O)O)P(=O)(O)O)ccc3O)CC(=O)O)c2)ccc1[O-].[68Ga+3] [[^68Ga]3]",
    "label value": "fulfilled"
  },
  {
    "molecule": "O=C([O-])CN(CCN(CC(=O)[O-])Cc1cc(CCC(=O)NC(P(=O)(O)O)P(=O)(O)O)ccc1[O-])Cc1cc(CCC(=O)NCC(=O)O)ccc1[O-].[68Ga+3] [[^68Ga]1c]",
    "label value": "fulfilled"
  },
  {
    "molecule": "O=C([O-])CN(CCN(CC(=O)[O-])Cc1cc(CCC(=O)NC(P(=O)(O)O)P(=O)(O)O)ccc1[O-])Cc1cc(CCC(=O)O)ccc1[O-].[68Ga+3] [[^68Ga]1a]",
    "label value": "not fulfilled"
  },
  {
    "molecule": "[18F-].[Na+] [[^18F]NaF, reference compound]",
    "label value": "fulfilled"
  },
  {
    "molecule": "O=C([O-])CN(CCN(CC(=O)[O-])Cc1cc(CCC(=O)NC(P(=O)(O)O)P(=O)(O)O)ccc1[O-])Cc1cc(CCC(=O)NCCNC(=O)CN2CCN(CC(=O)O)CCN(CC(=O)O)CCN(CC(=O)O)CC2)ccc1[O-].[68Ga+3] [[^68Ga]1h]",
    "label value": "not fulfilled"
  },
  {
    "molecule": "C[C@H](NC(=O)CCc1ccc([O-])c(CN(CCN(CC(=O)[O-])Cc2cc(CCC(=O)NC(P(=O)(O)O)P(=O)(O)O)ccc2[O-])CC(=O)[O-])c1)C(=O)O.[68Ga+3] [[^68Ga]1d]",
    "label value": "not fulfilled"
  },
  {
    "molecule": "O=C([O-])CN(CCN(CC(=O)[O-])Cc1cc(CCC(=O)N[C@@H](CC(=O)O)C(=O)O)ccc1[O-])Cc1cc(CCC(=O)NC(P(=O)(O)O)P(=O)(O)O)ccc1[O-].[68Ga+3] [[^68Ga]1e]",
    "label value": "not fulfilled"
  },
  {
    "molecule": "O=C([O-])CN(CCN(CC(=O)[O-])Cc1cc(CCC(=O)O)ccc1[O-])Cc1cc(CCC(=O)O)ccc1[O-].[68Ga+3] [[^68Ga]HBED-CC, reference compound]",
    "label value": "not fulfilled"
  },
  {
    "molecule": "O=C([O-])CN(CCN(CC(=O)[O-])Cc1cc(CCC(=O)N[C@@H](CCC(=O)O)C(=O)O)ccc1[O-])Cc1cc(CCC(=O)NC(P(=O)(O)O)P(=O)(O)O)ccc1[O-].[68Ga+3] [[^68Ga]1f]",
    "label value": "fulfilled"
  }
]

* * *

# procedure details: In vivo biodistribution in mice
# Design: species or system normal CD-1 male mice
# particulars: iv, 120 min
# Description: Biodistribution experiments were performed by intravenously administering ^68Ga labeled 1a-h, 2, 3, BPAMD, and [^18F]NaF into normal, healthy male CD-1 mice (25-30 g). The injection activity was 20-30 μCi/animal. […] Organs of interest were harvested, weighed, and counts of radioactivity were measured by a gamma counter. The biodistribution of each sample was calculated as a percentage of the injected dose per gram of wet tissue weight (% ID/g). […]
Measured bone to blood ratio accompanies every entry in the list below.
recorded endpoint: bone to blood ratio

[
  {
    "compound": "O=C(O)CN1CCN(CC(=O)O)CCN(CC(=O)NC(P(=O)(O)O)P(=O)(O)O)CCN(CC(=O)O)CC1.[68Ga] [[^68Ga]BPAMD, reference compound]",
    "recorded endpoint": "bone to blood ratio",
    "quantitative readout": 11
  },
  {
    "compound": "O=C([O-])CN(CCN(CC(=O)[O-])Cc1cc(CCC(=O)N[C@@H](CCC(=O)O)C(=O)O)ccc1[O-])Cc1cc(CCC(=O)NC(P(=O)(O)O)P(=O)(O)O)ccc1[O-].[68Ga+3] [[^68Ga]1f]",
    "recorded endpoint": "bone to blood ratio",
    "quantitative readout": 180
  },
  {
    "compound": "O=C([O-])CN(CCN(CC(=O)[O-])Cc1cc(CCC(=O)O)ccc1[O-])Cc1cc(CCC(=O)O)ccc1[O-].[68Ga+3] [[^68Ga]HBED-CC, reference compound]",
    "recorded endpoint": "bone to blood ratio",
    "quantitative readout": 12
  }
]

* * *

Measured bone to blood ratio accompanies every entry in the list below.
# procedure details: In vivo biodistribution in mice
# Design: species or system normal CD-1 male mice
# particulars: iv, 60 min
recorded endpoint: bone to blood ratio

[
  {
    "compound": "O=C([O-])CN(CCN(CC(=O)[O-])Cc1cc(CCC(=O)NC(P(=O)(O)O)P(=O)(O)O)ccc1[O-])Cc1cc(CCC(=O)O)ccc1[O-].[68Ga+3] [[^68Ga]1a]",
    "recorded endpoint": "bone to blood ratio",
    "result": 118
  },
  {
    "compound": "O=C([O-])CN(CCN(CC(=O)[O-])Cc1cc(CCC(=O)N[C@@H](CC(=O)O)C(=O)O)ccc1[O-])Cc1cc(CCC(=O)NC(P(=O)(O)O)P(=O)(O)O)ccc1[O-].[68Ga+3] [[^68Ga]1e]",
    "recorded endpoint": "bone to blood ratio",
    "result": 138
  },
  {
    "compound": "O=C([O-])CN(CCN(CC(=O)[O-])Cc1cc(CCC(=O)NC(P(=O)(O)O)P(=O)(O)O)ccc1[O-])Cc1cc(CCC(=O)NCCCNC(=O)CCc2ccc(O)c(CN(CCN(CC(=O)O)Cc3cc(CCC(=O)NC(P(=O)(O)O)P(=O)(O)O)ccc3O)CC(=O)O)c2)ccc1[O-].[68Ga+3] [[^68Ga]3]",
    "recorded endpoint": "bone to blood ratio",
    "result": 13
  },
  {
    "compound": "O=C([O-])CN(CCN(CC(=O)[O-])Cc1cc(CCC(=O)O)ccc1[O-])Cc1cc(CCC(=O)O)ccc1[O-].[68Ga+3] [[^68Ga]HBED-CC, reference compound]",
    "recorded endpoint": "bone to blood ratio",
    "result": 1.7
  },
  {
    "compound": "[18F-].[Na+] [[^18F]NaF, reference compound]",
    "recorded endpoint": "bone to blood ratio",
    "result": 161
  },
  {
    "compound": "O=C(O)CN1CCN(CC(=O)O)CCN(CC(=O)NC(P(=O)(O)O)P(=O)(O)O)CCN(CC(=O)O)CC1.[68Ga] [[^68Ga]BPAMD, reference compound]",
    "recorded endpoint": "bone to blood ratio",
    "result": 10
  },
  {
    "compound": "O=C([O-])CN1CCN(CC(=O)[O-])CCN(CC(=O)NCCNC(=O)CCc2ccc(O)c(CN(CCN(CC(=O)O)Cc3cc(CCC(=O)NC(P(=O)(O)O)P(=O)(O)O)ccc3O)CC(=O)O)c2)CCN(CC(=O)[O-])CC1.[177Lu+3] [[^177Lu]1h]",
    "recorded endpoint": "bone to blood ratio",
    "result": 97
  },
  {
    "compound": "O=C([O-])CN(CCN(CC(=O)[O-])Cc1cc(CCC(=O)N[C@@H](CCC(=O)O)C(=O)O)ccc1[O-])Cc1cc(CCC(=O)NC(P(=O)(O)O)P(=O)(O)O)ccc1[O-].[68Ga+3] [[^68Ga]1f]",
    "recorded endpoint": "bone to blood ratio",
    "result": 78
  },
  {
    "compound": "O=C([O-])CN(CCN(CC(=O)[O-])Cc1cc(CCC(=O)NC(P(=O)(O)O)P(=O)(O)O)ccc1[O-])Cc1cc(CCC(=O)NCCCCCC(=O)NCCCC[C@H](NC(=O)N[C@@H](CCC(=O)O)C(=O)O)C(=O)O)ccc1[O-].[68Ga+3] [[^68Ga]1g]",
    "recorded endpoint": "bone to blood ratio",
    "result": 53
  }
]
